Values compiled from patent US20220162261A1.

- Subject Of Test: T1, human α4β7 integrin on cells (human, UniProt P13612 34-1032; P26010 20-798)
- T1 construct: whole, on cells; also called α4β7 cell (Hu); RPMI8866 cells
- Procedure Text: RPMI8866 cell adhesion to MAdCAM-1
Numbered stars: 1 amine (or outer) side, 2 acyl side, 3 side chain; on linkers, the order of the positions; unused ones are H or OH. Bridge positions count the residues as written; N and C are the ends. Square brackets hold non-standard residues; d marks the D form. Ends that are not written are not given here. Asp(OMe) = L-aspartic acid beta-methyl ester, COC(=O)C[C@H](N[*:1])C(=O)[*:2]; NMeR = CN[C@@H](CCCNC(=N)N)C(=O)O; Pen = CC(C)(S)[C@H](N)C(=O)O
Recorded IC50, one value per entry.

binder="[Pen][NMeR]SDTL[Pen][dF]-NH2 (disulfide 1-7; not fully specified (N-terminus); printed as DIG NH2 Pen N-Me-R S D T L Pen f NH2, disulfide Pen-Pen; also: DIG linker at N-terminus, number of subunits not shown, N-terminal linker printed without dimer brackets) [SEQ ID NO: 7]" test_value="> 1000 nM"
binder="Ac-[Pen][NMeR]SDTL[Pen]H[dE][dK]-NH2 (disulfide 1-7; not fully specified (residue 10); printed as (Ac Pen N-Me-R S D T L Pen H e k NH2)2 DIG, disulfide Pen-Pen; also: homodimer: two subunits joined by DIG linker) [SEQ ID NO: 124]" test_value="> 100 nM"
binder="Ac-[Pen][NMeR]S[Asp(OMe)]TL[Pen]WE[dK]-NH2 (disulfide 1-7; also: Biotine, site of attachment not given here) [SEQ ID NO: 69]" test_value="> 100 nM"
binder="Ac-[Pen][NMeR]SDTL[Pen]HY[dK]-NH2 (disulfide 1-7; not fully specified (residue 10); printed as (Ac Pen N-Me-R S D T L Pen H Y k NH2)2 DIG, disulfide Pen-Pen; also: dimer, two subunits joined by DIG linker) [SEQ ID NO: 26]" test_value="> 100 nM"

Task: Please look up its IC50: Ac-[Pen][NMeR]SDTL[Pen]WF[dK]-NH2 (disulfide 1-7; not fully specified (residue 10); printed as (Ac Pen N-Me-R S D T L Pen W F k NH2)2 DIG, disulfide Pen-Pen; also: homodimer: two subunits linked by DIG via D-Lys10 side chain) [SEQ ID NO: 85]
Output: ≤ 10 nM

Task: Can you handle C[NMeR]SDTL[Pen]W-NH2 (disulfide 1-7; not fully specified (N-terminus); printed as PEG25 NH2 C N-Me-R S D T L Pen W NH2, disulfide C-Pen; also: N-terminal PEG25 linker, number of subunits not shown, N-terminal linker printed without dimer brackets) [SEQ ID NO: 21] next?
Output: > 50 nM
